# tested.on: hGPR119 (Homo sapiens, UniProt Q8TDV5)
# Construct: expressed in transfected cells; host or cells: CHO
# Sequence (Q8TDV5 1-335): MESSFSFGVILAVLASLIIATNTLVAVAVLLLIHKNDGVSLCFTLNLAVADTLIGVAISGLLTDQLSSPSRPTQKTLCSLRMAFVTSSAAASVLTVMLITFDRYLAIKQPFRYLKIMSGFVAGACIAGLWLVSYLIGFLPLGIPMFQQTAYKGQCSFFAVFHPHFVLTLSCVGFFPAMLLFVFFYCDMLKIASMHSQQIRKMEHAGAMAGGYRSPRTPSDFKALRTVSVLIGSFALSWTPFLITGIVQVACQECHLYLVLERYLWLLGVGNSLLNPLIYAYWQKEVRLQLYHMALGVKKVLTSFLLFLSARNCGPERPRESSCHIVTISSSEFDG
# method.description: In vitro cyclic AMP assay (Cisbio dynamic 2 HTRF kit) in CHO-hGPR119 cells
# Type: cell-based
# condition.label: 1 h, cAMP, compound at 1 μM, 60 min, read-out: Induction (% induction at 1 μM)
experimental.readout: activation at 1 µM (%)

compound | tested.on | experimental.readout | measurement.unit | experimental.value
Cc1cc(S(C)(=O)=O)ccc1-c1ccc2nc(O[C@H](C)C3CCN(c4nc(C(C)C)no4)CC3)sc2n1 | hGPR119 (Homo sapiens, UniProt Q8TDV5) | activation at 1 µM | % | 43
C[C@H](Oc1nc2ccc(-c3ccc(S(C)(=O)=O)nc3)nc2s1)C1CCN(c2nc(C(F)(F)F)no2)CC1 (stereo in doubt) | hGPR119 (Homo sapiens, UniProt Q8TDV5) | activation at 1 µM | % | 65
Cc1cc(-c2ccc(S(C)(=O)=O)cc2)nc2sc(OC(C)C3CCN(c4nc(C(C)C)no4)CC3)nc12 (stereo not drawn) | hGPR119 (Homo sapiens, UniProt Q8TDV5) | activation at 1 µM | % | 18
CC(C)c1noc(C2CCN(c3nc4ccc(Nc5ccc(S(C)(=O)=O)c(F)c5)nc4s3)CC2)n1 | hGPR119 (Homo sapiens, UniProt Q8TDV5) | activation at 1 µM | % | 12
CC(C)OC(=O)N1CC=C(CCOc2nc3ccc(-c4ccc(S(C)(=O)=O)cc4)nc3s2)CC1 | hGPR119 (Homo sapiens, UniProt Q8TDV5) | activation at 1 µM | % | 0.3
CC(C)c1noc(N2CCC(C(C)Oc3nc4ccc(-c5ccc(S(C)(=O)=O)cc5)nc4s3)CC2)n1 (stereo not drawn) | hGPR119 (Homo sapiens, UniProt Q8TDV5) | activation at 1 µM | % | 68
CC(C)c1noc(N2CCC([C@H](C)Oc3nc4ccc(-c5ccncc5)nc4s3)CC2)n1 | hGPR119 (Homo sapiens, UniProt Q8TDV5) | activation at 1 µM | % | 9
CC(C)c1noc(N2CCC(C(C)Oc3nc4ccc(-c5ccc(S(C)(=O)=O)cc5F)nc4s3)CC2)n1 (stereo not drawn) | hGPR119 (Homo sapiens, UniProt Q8TDV5) | activation at 1 µM | % | 24
CC(C)OC(=O)N1CCN(c2nc3ccc(-c4ccc(S(C)(=O)=O)cc4)nc3s2)CC1 | hGPR119 (Homo sapiens, UniProt Q8TDV5) | activation at 1 µM | % | 5
CC(C)c1noc(N2CCC(C(C)Oc3nc4ncc(-c5ccc(S(C)(=O)=O)cc5)nc4s3)CC2)n1 (stereo not drawn) | hGPR119 (Homo sapiens, UniProt Q8TDV5) | activation at 1 µM | % | 65
Cc1cc(-c2ccc3nc(OC(C)C4CCN(c5nc(C(C)C)no5)CC4)sc3n2)ccn1 (stereo not drawn) | hGPR119 (Homo sapiens, UniProt Q8TDV5) | activation at 1 µM | % | 50
CCc1cnc(N2CCN(c3nc4ccc(Oc5ccc(S(C)(=O)=O)cc5)nc4s3)CC2)nc1 | hGPR119 (Homo sapiens, UniProt Q8TDV5) | activation at 1 µM | % | 8
CC(Oc1nc2ccc(-c3ccc(S(C)(=O)=O)nc3)nc2s1)C1CCN(c2cnc(Cl)cn2)CC1 (stereo not drawn) | hGPR119 (Homo sapiens, UniProt Q8TDV5) | activation at 1 µM | % | 66
CC(Oc1nc2ccc(-c3ccc(S(C)(=O)=O)cc3)nc2s1)C1CCN(c2nc(C(F)(F)F)no2)CC1 (stereo not drawn) | hGPR119 (Homo sapiens, UniProt Q8TDV5) | activation at 1 µM | % | 40
CC(Oc1nc2ccc(-c3ccc(S(C)(=O)=O)nc3)nc2s1)C1CCN(c2ncc(C3CC3)cn2)CC1 (stereo not drawn) | hGPR119 (Homo sapiens, UniProt Q8TDV5) | activation at 1 µM | % | 73

Hey, just so you know, these numbers are from patent US10526345B2.
